Test system: KYSE-30
Assay: Antiproliferative activity against human KYSE-30 cells by CCK8 assay
Type: functional, cell-based
REPORTED PROPERTY: IC50
Show the value, then the unit it is measured in.

Required: IC50, one value per compound below.
1. Cc1ccc(C(=O)Nc2nc3ccc(NC(=O)C4CCN(Cc5ccccc5)CC4)cc3s2)cc1
2. O=C(Nc1nc2ccc(NC(=O)C3CCN(Cc4ccccc4)CC3)cc2s1)c1ccccc1
3. O=C(Nc1nc2ccc(NC(=O)C3CCN(Cc4ccccc4)CC3)cc2s1)c1sccc1Br
4. O=C(Nc1nc2ccc(NC(=O)C3CCN(Cc4ccccc4)CC3)cc2s1)c1ccc(Cl)o1
5. O=C(Nc1nc2ccc(NC(=O)C3CCN(Cc4ccccc4)CC3)cc2s1)c1cscn1
6. O=C(Nc1nc2ccc(NC(=O)C3CCN(Cc4ccccc4)CC3)cc2s1)c1ccccc1F
7. O=C(Nc1nc2ccc(NC(=O)C3CCN(Cc4ccccc4)CC3)cc2s1)c1ccc(F)cc1

["1190 nM", "3220 nM", "2630 nM", "1900 nM", "730 nM", "2290 nM", "1080 nM"]

For every record below, what is its IC50?
1. CCCC(=O)Nc1nc2ccc(NC(=O)C3CCN(Cc4ccccc4)CC3)cc2s1
2. O=C(Nc1nc2ccc(NC(=O)C3CCN(Cc4ccccc4)CC3)cc2s1)c1ccc(F)cc1Cl

1: 22700 nM; 2: 2080 nM

---

System: MCF7
Test: Antiproliferative activity against human MCF7 cells by CCK8 assay
Assay type: functional, cell-based
# note: exactly 7 µM is not below, so it is Condition not met; use Condition met for IC50 strictly under it

Worked examples follow.
O=C(Nc1nc2ccc(NC(=O)C3CCN(Cc4ccccc4)CC3)cc2s1)c1ccco1    Condition not met
O=C(Nc1nc2ccc(NC(=O)C3CCN(Cc4ccccc4)CC3)cc2s1)c1sccc1F    Condition met
O=C(Nc1nc2ccc(NC(=O)C3CCN(Cc4ccccc4)CC3)cc2s1)c1ccc(-c2ccccc2)cc1    Condition not met
COc1cc(C(=O)Nc2nc3ccc(NC(=O)C4CCN(Cc5ccccc5)CC4)cc3s2)cc(OC)c1OC    Condition met
O=C(Nc1nc2ccc(NC(=O)C3CCN(Cc4ccccc4)CC3)cc2s1)c1ccc(F)cc1    Condition met
C/C=C/C(=O)Nc1nc2ccc(NC(=O)C3CCN(Cc4ccccc4)CC3)cc2s1    Condition not met
O=C(Nc1nc2ccc(NC(=O)C3CCN(Cc4ccccc4)CC3)cc2s1)c1ccccc1F    Condition not met
O=C(Nc1nc2ccc(NC(=O)C3CCN(Cc4ccccc4)CC3)cc2s1)c1sccc1Br    Condition met

Next, consider the following compound.
For `O=C(Nc1nc2ccc(NC(=O)C3CCN(Cc4ccccc4)CC3)cc2s1)c1ccc2ccccc2c1` , is the recorded IC50 below the cut-off of 7 µM?
Condition not met

---

Test system: MCF7
Assay: Antiproliferative activity against human MCF7 cells by CCK8 assay
Format: functional, cell-based
pIC50: −log10 of the molar value.
I would appreciate it if you labelled entries condition met when pIC50 is 5 or higher, otherwise condition not met.

Solved cases below.
O=C(Nc1nc2ccc(NC(=O)C3CCN(Cc4ccccc4)CC3)cc2s1)c1cscn1    condition met
Cc1ccc(C(=O)Nc2nc3ccc(NC(=O)C4CCN(Cc5ccccc5)CC4)cc3s2)cc1    condition met
O=C(Nc1nc2ccc(NC(=O)C3CCN(Cc4ccccc4)CC3)cc2s1)c1ccc(C(F)(F)F)cc1    condition met
O=C(Nc1nc2ccc(NC(=O)C3CCN(Cc4ccccc4)CC3)cc2s1)c1cccnc1    condition not met
CCCC(=O)Nc1nc2ccc(NC(=O)C3CCN(Cc4ccccc4)CC3)cc2s1    condition not met

Now examine the next entry.
Textbook exercise: given the entry `O=C(Nc1nc2ccc(NC(=O)C3CCN(Cc4ccccc4)CC3)cc2s1)c1ccc(Cl)o1` , state whether its pIC50 is greater than or equal to 5.
condition met
